biological target: recombinant HCV NS5B (HCV RNA-dependent RNA polymerase) (Hepatitis C virus genotype 1b); test: biochemical; details: related polymerase activity (Example 27 list); read-out: IC50
Sequence (P26663 2420-3010 limits assumed): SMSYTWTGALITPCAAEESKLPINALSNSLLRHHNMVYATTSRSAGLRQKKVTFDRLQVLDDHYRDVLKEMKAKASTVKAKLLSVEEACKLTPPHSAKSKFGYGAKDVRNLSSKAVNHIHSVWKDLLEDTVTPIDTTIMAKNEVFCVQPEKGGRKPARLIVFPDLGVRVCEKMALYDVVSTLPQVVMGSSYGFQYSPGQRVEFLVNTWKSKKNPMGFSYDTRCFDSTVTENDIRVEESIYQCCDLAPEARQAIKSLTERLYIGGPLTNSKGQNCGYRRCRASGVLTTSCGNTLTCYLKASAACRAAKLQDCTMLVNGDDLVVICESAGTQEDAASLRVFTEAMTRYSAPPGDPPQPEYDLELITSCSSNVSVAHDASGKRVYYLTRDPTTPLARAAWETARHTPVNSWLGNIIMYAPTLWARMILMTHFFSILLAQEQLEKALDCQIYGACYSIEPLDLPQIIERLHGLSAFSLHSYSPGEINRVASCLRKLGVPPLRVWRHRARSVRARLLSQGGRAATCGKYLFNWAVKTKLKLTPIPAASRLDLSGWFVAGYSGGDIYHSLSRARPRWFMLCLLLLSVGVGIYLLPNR
For each record, write down the corresponding IC50.

Quickly give me recorded IC50 for O=C(O)c1sc(-c2ccccc2)cc1NS(=O)(=O)c1ccccc1Cl
5 to 20 µM

Quickly give me recorded IC50 for Cc1ccccc1S(=O)(=O)Nc1cc(-c2ccccc2O)sc1C(=O)O
5 to 20 µM

Quickly give me recorded IC50 for Cc1ccc(S(=O)(=O)Nc2cc(C(C)(C)C)sc2C(=O)O)c(C)c1
5 to 20 µM

Quickly give me recorded IC50 for Cc1ccc(C(=O)N(C)c2cc(-c3cccc(F)c3)sc2C(=O)O)cc1
< 5 µM

Quickly give me recorded IC50 for Cc1ccc(C(=O)N(C)c2cc(-c3ccc(O)cc3)sc2C(=O)O)cc1
< 5 µM

Quickly give me recorded IC50 for CCC(C)N(C(=O)c1ccc(Cl)cc1Cl)c1cc(-c2ccccc2)sc1C(=O)O (centres unmarked)
< 5 µM

Quickly give me recorded IC50 for Cc1ccc(C(=O)N(c2cc(-c3cccc(C)c3)sc2C(=O)O)C(C)C)cc1
< 5 µM

Quickly give me recorded IC50 for C=CCN(C(=O)Cc1c(Cl)cccc1Cl)c1cc(-c2ccccc2)sc1C(=O)O
5 to 20 µM

Quickly give me recorded IC50 for O=C(O)c1sc(-c2ccccc2)cc1NS(=O)(=O)c1cccc(C(F)(F)F)c1
5 to 20 µM

Quickly give me recorded IC50 for Cc1ccc(C(=O)N(C)c2cc(-c3ccccc3)sc2C(=O)O)c(F)c1F
< 5 µM

Quickly give me recorded IC50 for Cc1ccccc1S(=O)(=O)Nc1cc(-c2ccccc2C(F)(F)F)sc1C(=O)O
5 to 20 µM

Quickly give me recorded IC50 for Cc1cc(C)c(S(=O)(=O)Nc2cc(-c3ccccc3)sc2C(=O)O)c(C)c1
< 5 µM

Quickly give me recorded IC50 for Cc1ccccc1S(=O)(=O)Nc1cc(-c2ccncc2)sc1C(=O)O
< 5 µM

Quickly give me recorded IC50 for CN(C(=O)c1ccc(Cl)c(Cl)c1)c1cc(-c2ccccc2)sc1C(=O)O
5 to 20 µM

Quickly give me recorded IC50 for Cc1ccccc1S(=O)(=O)Nc1cc(-c2ccc(C(=O)O)cc2)sc1C(=O)OC(C)(C)C
5 to 20 µM

Quickly give me recorded IC50 for Cc1ccccc1S(=O)(=O)Nc1cc(-c2cc(NS(=O)(=O)c3ccccc3C)c(C(=O)O)s2)sc1C(=O)O
< 5 µM

Quickly give me recorded IC50 for CC(C)N(C(=O)c1ccc(Cl)cc1Cl)c1cc(-c2ccc(C(=O)O)cc2)sc1C(=O)O
< 5 µM

Data origin: patent US6881741B2
